Parameter antibody concentration at which ELISA is positive: see the listing below.
Target: T1, alpha-synuclein peptide 1-95 (human)
T1 construct: synthetic peptide coated on plate
Assay: peptide ELISA
assay.metric: antibody concentration at which ELISA is positive

INSERT INTO measurements (binder, recorded_result) VALUES
  ('22E11 (antibody, IgG1, V domains shown, also called clone 22E11) VH: AVQLVESGGGLVQPKESLKISCAASGFTFSTAAMYWVRQAPGKGLEWVTRIRTKPNNYATYYADSVKGRFTISRDDSKSMVYLQMDNLKTEDTAMYYCTADYYDGTPFAYWGQGTLVTVSS VL: AVVMTQTPVSLSVSLGGQVSISCRSSQSLVHNNGITYLSWYLQKPGQSPQLPIYKVSNRFSGFSDRFSGGGSGTDFTLKISRVEPDDLGLYYCGQGTQYPYTFGAGTKLELK', '> 2600 ng/mL'),
  ('18B4 (antibody, IgG2b, V domains shown, also called clone 18B4) VH: EVQLVESGGGLVQPGRSLKLSCAASGFTFSSFAMAWVRQAPKKGLEWVATITSGGSKTYYPDSVKGRFTISRDNAKSTLYLQMDSLRSEDTATYYCAKGYFDYWGQGVMVTVSS VL: DVVLTQTPPTLSATIGQSVSISCRSSQSLLHSNGNTYLHWLLQRPGQSPQLLIYLVSRLESGVPNRFSGSGSGTDFTLKISGVEAEDLGVYYCVQGTHAPLTFGSGTKLEIK', '> 2600 ng/mL'),
  ('1H5 (antibody, rat IgG2b, V domains shown, also called clone 1H5) VH: AVQLVESGGGLVQPKESLKISCAASGFTFSDAAMYWVRQAPGKGLELVARIRTKPNNYATYYADSVKGRFTISRDDSKSMVYLQMGNLKTEDTAMYYCSADFHYFDYWGQGVMVTVSS VL: DIQMTQSPSVLSASVGDRVTLSCKAGQNINKNLDWYQQKLGEAPKLLISFTNNLQTGVPSRFSGSGSGSDYTLTISSLQPEDVATYYCYQYNSGWTFGGGTKLELK', '> 2600 ng/mL');

Provenance of the data: patent US20230074436A1
